Target: human adenosine A2A receptor (Homo sapiens, UniProt P29274)
Construct: expressed in transfected cells; host or cells: CHO cells, Semliki Forest virus expression system; membrane preparation
Sequence (P29274 whole entry): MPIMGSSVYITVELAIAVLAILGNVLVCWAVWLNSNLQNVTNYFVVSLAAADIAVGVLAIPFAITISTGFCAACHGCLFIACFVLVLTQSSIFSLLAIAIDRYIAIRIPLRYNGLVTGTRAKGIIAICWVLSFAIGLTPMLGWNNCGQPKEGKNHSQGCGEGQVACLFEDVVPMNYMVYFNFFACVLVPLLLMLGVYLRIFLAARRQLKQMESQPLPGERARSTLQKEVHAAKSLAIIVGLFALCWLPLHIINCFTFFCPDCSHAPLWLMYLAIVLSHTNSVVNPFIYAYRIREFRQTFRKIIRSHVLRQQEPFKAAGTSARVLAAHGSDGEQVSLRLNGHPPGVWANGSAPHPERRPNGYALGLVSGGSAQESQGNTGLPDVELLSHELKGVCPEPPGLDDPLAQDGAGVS
Experiment: Human adenosine A2A receptor [3H]-SCH-58261 binding assay
Conditions: calculated ratio of the affinity to the HA1 receptor to the HA2a receptor
Protocol: Human Adenosine A2A Receptor The human adenosine A2A receptor was recombinantly expressed in chinese hamster ovary (CHO) cells using the semliki forest virus expression system. […] Assay plates were incubated for 1 hour at room temperature before centrifugation and then bound ligand determined using a Packard Topcount scintillation counter. IC50 values were calculated using a non-linear curve fitting program and Ki values calculated using the Cheng-Prussoff equation.

{"columns": ["Compound", "Test system", "selectivity (A1/A2a)"],
 "data": [
  ["COc1ccc(-c2nc3cc(C(=O)NCc4ccccc4)cc(N)n3n2)s1", "human adenosine A2A receptor (Homo sapiens, UniProt P29274)", 0.6],
  ["Nc1cc(C(=O)NC2CCCCC2)cc2nc(-c3cccs3)nn12", "human adenosine A2A receptor (Homo sapiens, UniProt P29274)", 4.9],
  ["Nc1cc(C(=O)NCc2ccc(F)cc2)cc2nc(-c3nccs3)nn12", "human adenosine A2A receptor (Homo sapiens, UniProt P29274)", 5.2],
  ["CCN(C(=O)c1cc(N)n2nc(-c3ccc(Br)o3)nc2c1)C1CCCCC1", "human adenosine A2A receptor (Homo sapiens, UniProt P29274)", 31.1],
  ["Nc1cc(C(=O)N2CCOCC2)cc2nc(-c3ccc(Br)o3)nn12", "human adenosine A2A receptor (Homo sapiens, UniProt P29274)", 22.7],
  ["C=CCN(CC=C)C(=O)c1cc(N)n2nc(-c3ccc(Br)o3)nc2c1", "human adenosine A2A receptor (Homo sapiens, UniProt P29274)", 41.6],
  ["Nc1cc(C(=O)N2CCc3c([nH]c4ccccc34)C2)cc2nc(-c3ccc(Br)o3)nn12", "human adenosine A2A receptor (Homo sapiens, UniProt P29274)", 6.1],
  ["CCCCN(CCC)C(=O)c1cc(N)n2nc(-c3ccc(Br)o3)nc2c1", "human adenosine A2A receptor (Homo sapiens, UniProt P29274)", 47.3],
  ["CCCCNC(=O)c1cc(N)n2nc(-c3ccccc3)nc2c1", "human adenosine A2A receptor (Homo sapiens, UniProt P29274)", 4.1],
  ["COc1ccccc1CNC(=O)c1cc(N)n2nc(-c3ccc(C)o3)nc2c1", "human adenosine A2A receptor (Homo sapiens, UniProt P29274)", 7.6],
  ["Nc1cc(C(=O)N2CCCCC2)cc2nc(-c3ccccn3)nn12", "human adenosine A2A receptor (Homo sapiens, UniProt P29274)", 38.8],
  ["CCCCCCNC(=O)c1cc(N)n2nc(-c3ccccn3)nc2c1", "human adenosine A2A receptor (Homo sapiens, UniProt P29274)", 8.4],
  ["Cc1ccc(-c2nc3cc(C(=O)NCc4ccccc4Cl)cc(N)n3n2)s1", "human adenosine A2A receptor (Homo sapiens, UniProt P29274)", 1.2],
  ["COc1cc(CNC(=O)c2cc(N)n3nc(-c4ccc(C)o4)nc3c2)cc(OC)c1OC", "human adenosine A2A receptor (Homo sapiens, UniProt P29274)", 16.6],
  ["C[C@@H]1CN(C(=O)c2cc(N)n3nc(-c4ccc(Br)o4)nc3c2)C[C@H](C)O1", "human adenosine A2A receptor (Homo sapiens, UniProt P29274)", 54.9],
  ["CCN(C(=O)c1cc(N)n2nc(-c3nccs3)nc2c1)C(C)C", "human adenosine A2A receptor (Homo sapiens, UniProt P29274)", 21.0],
  ["Nc1cc(C(=O)N2CCCC3CCCCC32)cc2nc(-c3ccc(Br)o3)nn12 (stereo not drawn)", "human adenosine A2A receptor (Homo sapiens, UniProt P29274)", 22.3],
  ["Cc1ccc(-c2nc3cc(C(=O)NC4CCc5ccccc54)cc(N)n3n2)s1 (stereo not drawn)", "human adenosine A2A receptor (Homo sapiens, UniProt P29274)", 1.1]
]}

Measured values drawn from patent US6506772B1 for this set.
